// data source = paper PMC7111758

system: HEL cells; assay: Cytotoxicity, microscopically detectable alteration of cell morphology; assay type: cell-based, human; conditions: microscopically detectable alteration of cell morphology
Task for the reader: assign each of the following compounds its reported Cytotoxicity MCC (minimum cytotoxic concentration).

Could you share what Cytotoxicity MCC (minimum cytotoxic concentration) was measured for CC(=O)O.NC1=NC(=O)N(CC(O)C(F)(F)F)CN1 (stereo not drawn) , tested on HEL cells? >100 µM

# repeat for Nc1nc(O)c2ncn(COC(CO)CO)c2n1 [GCV, ganciclovir, reference compound] >350 µM

Do the same for Nc1ncn(CC(O)C(F)(F)F)c(=O)n1 (stereo not drawn) please >446 µM

Then this compound: Nc1ccn(C[C@@H](CO)OCP(=O)(O)O)c(=O)n1 [CDV, cidofovir, reference compound] >300 µM

Moving on to the next compound: CCOC(=O)C(C)NP(=O)(COC(CF)CN1CN2C=C(c3ccccc3)NC2=NC1=O)NC(C)C(=O)OCC (stereo not drawn) [19a] >100 µM

Can you handle Nc1ncn(CC(OCP(=O)(O)O)C(F)(F)F)c(=O)n1 (stereo not drawn) next? >100 µM

Same question, CCOC(=O)C(C)NP(=O)(COC(CF)CN1CN2C=C(c3ccc(OC)cc3)NC2=NC1=O)NC(C)C(=O)OCC (stereo not drawn) [19c] this time >100 µM

And the next one, Nc1ncn(C[C@@H](CF)OCP(=O)(O)O)c(=O)n1 ? >100 µM

// repeat for Nc1nc2c(ncn2COCCO)c(=O)[nH]1 [ACV, acyclovir, reference compound] and report >440 µM
